Tested on: NCI-H460 lung
Assay: NCI tumour cell line growth inhibition, 48 h
Below: a set of entries, each annotated with reported TGI.

Known results for molecules:
O=C(CP(=O)(O)O)NC(CC(=O)OCc1ccccc1)C(=O)OCc1ccccc1 (stereo not given)
> 100 µM
Nc1nc(Cl)c(N)c(NCC2(CO)CC(OCc3ccccc3)C2)n1 (stereo not given)
> 100 µM
Cc1cc2c(ccc3c(C)cc(=O)oc32)o1
> 100 µM
CCSc1sc(=Nc2ccc(N=c3sc(C)c(SC)s3)cc2)sc1-c1ccc(C)cc1
> 100 µM
CCOC(=O)C1=CNC(C(=O)OCC)C1c1cccn1-c1ccc(Cl)cc1[N+](=O)[O-] (stereo not given)
61.3 µM
O=c1[nH]c(=O)n(C2OC(COP(=O)(O)OP(=O)(O)OC3OC(CO)C(O)C(O)C3O)C(O)C2O)cc1F (stereo not given)
0.429 µM

Now consider a different molecule.
For CCOC(=O)C1N(S(=O)(=O)c2ccc(C)cc2)CCC12c1ccccc1N(C(C)=O)C2c1ccc(OC)c(OC)c1 (stereo not given) , what is its reported TGI?
> 100 µM
